Tested on: photochemical system II
Procedure Text: Photosynthesis activity (Fv/Fm) of Arabidopsis
Type: in vivo, Arabidopsis thaliana
Condition: gaseous state 25 nmol/cm^3, 120 min, 25° C., light 100 μmol/m^2·s, dark adaptation 5 min
For each record, write down the corresponding photosynthesis activity (Fv/Fm).
One number for each entry.

Some compounds with recorded photosynthesis activity (Fv/Fm):
Compound	photosynthesis activity (Fv/Fm)
CCCC/C=C/C=O [(E)-2-heptenal]	0.748
CCCCCC/C=C/C=O [(E)-2-nonenal]	0.741

Go through the items and report each one's photosynthesis activity (Fv/Fm).
1. C=CC=O [2-propenal, reference compound]
2. CC/C=C\CCCCC=O [(Z)-6-nonenal]
3. CCCCC/C=C/C=O [(E)-2-octenal]
4. CC/C=C/C=O [(E)-2-pentenal]
5. CCC/C=C/C=O [(E)-2-hexenal]
6. CC/C=C\CCC=O [(Z)-4-heptenal]
7. CC#N [acetonitrile, reference compound]

// result
0.393
0.745
0.732
0.710
0.739
0.743
0.729

For each of the compounds below, state photosynthesis activity (Fv/Fm).
1. C/C=C/C=O [(E)-2-butenal]
2. CCCCCCC/C=C/C=O [(E)-2-decenal]

// result
1: 0.726; 2: 0.753

Values compiled from patent US10874101B2.
